From: PubChem BioAssay (NCI)

tested on: SW-620 colon; assay: NCI-60 one-dose screen, 48 h; conditions: 10 µM unless noted
The panel holds about 83,000 compounds, 20% with a hit somewhere; the sample as a whole holds those more often. Activity calls are given as the source filed them. Rule for the calls: active = growth percent below 10; inactive = the rest.
Thanks in advance; please answer with one of these: active, inactive

Could you please tell me the result logged for `Clc1cccc(-c2cc(-c3ccc4c(c3)OCCO4)[nH]n2)c1` in this assay?
inactive

Could you please tell me the result logged for `COc1ccc(C(=O)N2NC(=O)/C(=C/c3ccccc3F)N=C2c2ccccc2)cc1` in this assay?
inactive

Could you please tell me the result logged for `COc1c2occc2c(OC)c2c(=O)c(-c3cc(-c4ccc(F)cc4)c(C#N)c(N)n3)c(C)oc12` in this assay?
inactive

Could you please tell me the result logged for `O=[N+]([O-])c1ccc(OCCCOc2ccccc2)cc1` in this assay?
inactive

Could you please tell me the result logged for `COc1cc(NC(N)=NCCC(C)(C)c2ccc(C(F)(F)F)cc2)ncc1C#N` in this assay?
active

Could you please tell me the result logged for `O=S(=O)(NCCNc1nccc(-c2c(-c3ccc(F)cc3)nc3sccn23)n1)c1ccc(F)cc1` in this assay?
inactive

Could you please tell me the result logged for `COc1cc(/C=N\NC(=O)CN2CCN(c3cc4c(cc3F)c(=O)c(C(=O)N/N=C/c3cc(OC)c(OC)c(OC)c3)cn4C3CC3)CC2)cc(OC)c1OC` in this assay?
active

Could you please tell me the result logged for `Cc1ccc(S(=O)(=O)/C(=C\c2ccc(Cl)cc2)C(=O)c2ccccc2)cc1` in this assay?
inactive

Could you please tell me the result logged for `Cc1[nH]c2ccc(F)cc2c1CCNC(=O)C1CCN(C(=O)c2ccccc2)CC1` in this assay?
inactive

Could you please tell me the result logged for `OB(O)c1cccc(-c2nc3ccc4[nH]ncc4c3c3c2CCCC3)c1F` in this assay?
inactive

Could you please tell me the result logged for `O=c1[nH]c(NCc2ccccc2)nc2nc(Nc3ccc(NC(=S)Nc4ccccc4)cc3)nc(-c3ccc(O)cc3O)c12` in this assay?
inactive

Could you please tell me the result logged for `CCC1=CCC[C@@]2(C)CCC[C@@]3(C)CCCC(C)(C)[C@]1([O-])[O+]32` in this assay?
inactive

Could you please tell me the result logged for CN(C)CCCC(C#N)c1ccccc1 (centres undefined) in this assay?
inactive

Could you please tell me the result logged for `COc1ccc(N2CCN(Cc3cc(C(=O)/C=C/c4c[nH]c5ccccc45)ccc3O)CC2)cc1` in this assay?
inactive

Could you please tell me the result logged for `Clc1cc2c(nn1)Nc1ccccc1S2` in this assay?
inactive

Could you please tell me the result logged for `COc1ccc2c(c1)[nH]c(=O)c1c3cc(C)c(C)cc3cn21` in this assay?
active

Could you please tell me the result logged for `CCOC(=O)CN1/C(=N/c2sc3c(c2C(=O)OCC)CCN(C(=O)OCC)C3)SC(=O)/C1=C\C(=O)OC` in this assay?
inactive

Could you please tell me the result logged for `COc1ccc(C(=O)n2nc(/C=C/c3ccc(O)c(OC)c3)cc2/C=C/c2ccc(O)c(OC)c2)cc1` in this assay?
active

Could you please tell me the result logged for `O=C1/C(=C/c2ccc(Cl)cc2)CN(C(=O)CCN2CCC(=NO)CC2)C/C1=C\c1ccc(Cl)cc1` in this assay?
active

###

test system: HT29 colon; test: NCI-60 one-dose screen, 48 h; conditions: 10 µM unless noted
Compounds without any hit were thinned out: in the full panel of roughly 83,000, 20% have a hit. The source made the active and inactive calls. How the source made its calls: active means growth percent below 10; inactive means the rest.
Thanks in advance; please answer with one of these: active, inactive

Could you please tell me the result logged for O=C1c2c(Cl)c(Cl)c(Cl)c(Cl)c2C(=O)C2(Cl)CC=CCC12Cl (stereo not given) in this assay?
active

Could you please tell me the result logged for `Brc1cccc(-c2cc(-c3ccc4nccnc4c3)[nH]n2)c1` in this assay?
active

Could you please tell me the result logged for `Cc1ccc(-c2cc3nc(C(Cl)Cl)nc(-c4cccnc4)n3n2)cc1` in this assay?
active

Could you please tell me the result logged for `CC(C)(C)n1cc(-c2ccnc(NCCCNS(=O)(=O)c3ccccc3)c2)c(-c2cccc(O)c2)n1` in this assay?
active

Could you please tell me the result logged for `CCCC(=O)Oc1ccc(/C(=C(\C)c2ccccc2)c2ccc(OCCN(CC)CC)cc2)cc1` in this assay?
active

Could you please tell me the result logged for `O=C(NCCCNc1nccc(-n2ccc3cccnc32)n1)c1c(F)cccc1F` in this assay?
inactive

Could you please tell me the result logged for CCCCCCCCCCCCCCCCCCNC(=O)[C@H]1CSC(c2ccc(OC)cc2O)N1 (stereo not given in full) in this assay?
inactive

Could you please tell me the result logged for `O=C(N/N=C/C=C\c1ccccc1)C(=O)N/N=C/C=C/c1ccccc1` in this assay?
inactive

Could you please tell me the result logged for `N/C(=N\S(=O)(=O)c1ccccc1)Nc1nc2ccccc2s1` in this assay?
inactive

Could you please tell me the result logged for `C=C1C(=O)O[C@H]2[C@H]1CC/C(Cn1cc(-c3cccc(Cl)c3)nn1)=C\CC[C@@]1(C)O[C@@H]21` in this assay?
active

Could you please tell me the result logged for CC(C)C(C(=O)NCCN1CCOCC1)N1C(=O)/C(=C/c2ccc(Br)cc2)SC1=S (stereo not given) in this assay?
inactive

Could you please tell me the result logged for `COc1cccc(-c2nc3sccn3c2-c2ccnc(NCCCNS(=O)(=O)c3ccc(C(F)(F)F)cc3)c2)c1` in this assay?
inactive

Could you please tell me the result logged for `CCCCCCCC[C@@H](O)CC(=O)N[C@@H](CC(N)=O)C(=O)N[C@@H](CCC(N)=O)C(=O)N[C@@H](CC(=O)c1cc(C)cc(O)c1C(=O)c1c(O)cccc1O)CC(C)C` in this assay?
active

Could you please tell me the result logged for `Cc1cc(C2(c3cc(C)c(O)cc3C)OS(=O)(=O)c3ccccc32)c(C)cc1O` in this assay?
inactive

Could you please tell me the result logged for CCOC(=O)C1C(=O)C=C(c2ccc(OC)cc2)CC1c1sc(N(C)Cc2ccccc2)nc1Cl (stereo not given) in this assay?
inactive

Could you please tell me the result logged for `NC(=O)CCCN1C/C(=C\c2ccccc2)C(=O)c2ccccc21` in this assay?
inactive

Could you please tell me the result logged for `CCCCN(CCCC)C(=N)c1ccnc2ccccc12` in this assay?
inactive

Could you please tell me the result logged for `Cc1c(C(N)=O)sc2c1c(=O)n(Cc1ccccc1)c1nnc(Nc3ccccc3)n21` in this assay?
inactive

Could you please tell me the result logged for `Cc1ccc(C(=O)C2=Cc3cc4ccccc4n3Cc3cnnn32)cc1` in this assay?
inactive

Could you please tell me the result logged for `NC(N)=N/N=C/c1ccc(-c2ccc(-c3cc(Cl)cc(Cl)c3)s2)cc1` in this assay?
active

Could you please tell me the result logged for `CN1CCN(Cc2ccc(NC(=O)c3cncc(C#Cc4cnc(N)c5cnccc45)c3)cc2C(F)(F)F)CC1` in this assay?
active

Could you please tell me the result logged for `O=c1ccn(-c2ncnc3nc[nH]c23)cc1` in this assay?
inactive

Could you please tell me the result logged for `CCOc1cc2c(Cl)ncnc2c(OCC)c1OCC` in this assay?
inactive

Could you please tell me the result logged for Cc1csc(NC(c2ccc(Br)cc2)c2c(C)nc3ccccn23)n1 (stereo not given) in this assay?
inactive

Could you please tell me the result logged for `Cc1ccc(CSC(=N)N)cc1C` in this assay?
inactive

Could you please tell me the result logged for `Brc1cccc(-c2cc(-c3ccc4c(c3)OCCCO4)[nH]n2)c1` in this assay?
inactive

Could you please tell me the result logged for NC1=C(/C(N)=N/O)C(c2ccccc2)c2ccc3ccccc3c2O1 (stereo not given) in this assay?
active

Could you please tell me the result logged for `O=c1[nH]c(Nc2ccc(S(=O)(=O)O)cc2)nc2nc(Nc3ccc(NC(=S)Nc4ccccc4)cc3)nc(-c3ccc(O)cc3O)c12` in this assay?
inactive

Could you please tell me the result logged for `O=C(Nc1ccncc1)C(=O)c1cn(S(=O)(=O)c2ccc(Cl)cc2)c2ccccc12` in this assay?
active

Could you please tell me the result logged for `O=C1/C(=C/c2ccccc2)CN(C(=O)CCN2CCC(=NO)CC2)C/C1=C\c1ccccc1` in this assay?
active

Could you please tell me the result logged for `CC(C)C1=CC2=C(C=O)C[C@@H]3[C@](C)(CCC[C@@]3(C)C(=O)OCC#CCN3CCCC3)[C@H]2CC1` in this assay?
inactive

Could you please tell me the result logged for CCOC(=O)c1ccc(NC(=O)N2CC(C)OC(C)C2)cc1 (stereo not given) in this assay?
inactive

Could you please tell me the result logged for `Cc1ccc(-c2cc3nc(-c4ccccc4)nc(C(Cl)Cl)n3n2)cc1` in this assay?
active

Could you please tell me the result logged for C=C1CCC2C(C)(CO)C(O)CCC2(C)C1C/C=C1/C(=O)OCC1O/C=C/c1ccccc1 (stereo not given) in this assay?
inactive

Could you please tell me the result logged for `COc1ccc(/C=C2\N=C(c3ccccc3)N(C(=O)c3ccccc3O)NC2=O)cc1` in this assay?
inactive

Could you please tell me the result logged for `ClC(Cl)c1nc(-c2cccnc2)n2nc(-c3ccccc3)cc2n1` in this assay?
active

Could you please tell me the result logged for `Cc1[nH]c2ccc(F)cc2c1CCNC(=O)C1CCN(C(=O)c2ccccc2)CC1` in this assay?
inactive

Could you please tell me the result logged for `O=C(/C=C/c1cc(-c2ccc3c(c2)OCO3)n[nH]1)c1ccc2c(c1)OCO2` in this assay?
inactive

Could you please tell me the result logged for Clc1ccc2c(NC3CCC(NC4CCCCC4)CC3)ccnc2c1 (stereo not given) in this assay?
active

Could you please tell me the result logged for `CN(C[C@H]1Cc2c(cccc2N2CCN(Cc3ccccn3)CC2)CN1)[C@H]1CCCc2cccnc21` in this assay?
inactive
